Property: inhibition; scope: individual molecules
- System: metallo-beta-lactamase IMP-1 (Pseudomonas aeruginosa)
- assay summary: IMP-1 metallo-beta-lactamase inhibitors, confirmation, biochemical, epi-absorbance, hits shared with VIM-2 screen (AID 2189);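 also: 0% = enzyme with vehicle and 100% = vehicle without enzyme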
- measurement context: purified IMP-1 enzyme, absorbance substrate hydrolysis; at 5.6 µM; active compounds read high
The other results are listed elsewhere or left out.
parameter measured: inhibition (%)

                            chemical_smiles  unit_name  value
0  Cc1cc2nc3c(=O)n(Cc4ccccc4)c(=O)[nH]c3nc2cc1N          %   13.2
1                  Oc1ccc2ccc3cccc[n+]3c2c1          %   23.2
2  Nc1c(C(=O)c2cccs2)sc2nsc(SCCN3CCCCC3)c12          %   18.4
3  NS(=O)(=O)c1ccc(NC(=O)COC(=O)c2c3c(nc4ccccc24)/C(=C\c2ccc4c(c2)OCO4)CCC3)cc1          %  -2.39
4  Cc1nn(C)cc1N1C(=O)c2cccc3c(N)ccc(c23)C1=O          %   29.8
5  c1ccc(-c2nccc(-c3ccc(-n4cnc5ccccc54)cc3)n2)nc1          %   0.59
